B1: HDV Ribozyme (parent)
chain: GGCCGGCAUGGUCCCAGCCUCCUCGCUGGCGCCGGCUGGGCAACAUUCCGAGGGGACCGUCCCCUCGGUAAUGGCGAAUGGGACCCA

Variants of: B1
assay text: self-cleavage, relative activity (ratio to wild type); higher = more cleavage; co-transcriptional
// map self-cleavage to label using Low (below 0.1), Medium (0.1 to below 0.7), High (0.7 or more)

Ask: Which bin should I file GGCCGGCAUGGUCCCAGCCUCCUCGCUGGCGCCGGCUGGGGAACAUUCCGAGGGAACCGUCCCCUCGGUAAUGGCGAAUGGGACCCA under?
Result: High

Ask: Quick one: GGCCGGCAUGGUCCCAUCCUCCUCGCUGGCGCCGGCUGGGCAACAUUCCGAGGGGACCCUCCCCUCGGUAAUGGCGAAUGGGACCCA
Result: Medium

Ask: How about GGCCGGCAUGGUCCCAGCCGCCUCGCUGGCGCCGGCUGGGCAACAUUCCGAGGGGGCCGUCCCCUCGGUAAUGGCGAAUGGGACCCA ?
Result: Medium

Ask: What would you report for GGCCGGCAUGGUCCCAGCCUCCGCGCUGGCGCCGGCUGGGCAACAUUCCGAGGGGACCGUCCCCUCGGAAAUGGCGAAUGGGACCCA ?
Result: Medium

Ask: How about GGCCGGCAUGGUCCCAGCCUCCUCGCUGGCGCCGGCUGGGCAACAUUCCGUGGGGACCGUCCCCUCGGUAAUGGGGAAUGGGACCCA ?
Result: Medium

Ask: Thanks! And GGCCGGCAUGUUCCCAGCCUCCUCGCUGGCGCCGGCUGGGCAACAUUCCGAGGGGACCGUCCUCUCGGUAAUGGCGAAUGGGACCCA ?
Result: Medium

Ask: Same for GGCCGGCAUGGUCCCAGCCUCCUCGCUGGCGCCUGCUGGGCUACAUUCCGAGGGGACCGUCCCCUCGGUAAUGGCGAAUGGGACCCA
Result: Medium

Ask: Let us now turn to GGCCGGGAUGGUCCCAGGCUCCUCGCUGGCGCCGGCUGGGCAACAUUCCGAGGGGACCGUCCCCUCGGUAAUGGCGAAUGGGACCCA
Result: Low

Ask: Now try GGCCGGCAUGGUCCCAGCCUCCUCGUUGGCGCCGGCUGGGCAACAUACCGAGGGGACCGUCCCCUCGGUAAUGGCGAAUGGGACCCA .
Result: High

Ask: # iterate: GGCCGUCAUGGUCCCAGCCUCCUCGCUGGAGCCGGCUGGGCAACAUUCCGAGGGGACCGUCCCCUCGGUAAUGGCGAAUGGGACCCA
Result: Low

Ask: GGCCGGCAUGGUCCCAGCCUCCUGGCUGGCGCCGGCUGGGCAACAUUCCGAGGGGACCGUCCCCUCGGUAAUGGCGAAUGUGACCCA , same question.
Result: Low

Ask: Same question for GGCCGCCAUGGUCCCAGCCUCCUCGCUGGCGCCGGCUGGGCAACAUUCCGAGGGGACCGUCCCCUAGGUAAUGGCGAAUGGGACCCA please.
Result: Medium

Ask: Another variant to check: GGCCGGCAUGGUCCCAGCCUCCUCGCUGGCGCCGGCUGGGCUACAUUCCGAGGGGACCGUCCCCUCGGUAAUGGCGAAUGGGACUCA
Result: Medium

Ask: Same read-out for GGCCGGUAUGGUCCCAGCCUCCUCGCUGGCGCCGGCUGGGCAACAUUCCGAGGGGACCGUCCCCUCGGUAAUCGCGAAUGGGACCCA ?
Result: Medium

Ask: // same read-out, input: GGCCGGCAUGGUCCCAGCCUCCUCGCUGGCGCCGGCUGGGCAACAUUCCGAGGGUACCGUCCCCUCGGUAAUGGCGAAUGGGGCCCA
Result: High

Ask: Would you kindly repeat that for GGCCGGCAUGGUCUCAGCCUCCUCGCUGGCGCCGGCUGGGCAACAUUCCGAGGGGACCGUCCCCUGGGUAAUGGCGAAUGGGACCCA ?
Result: High

Ask: Then GGCCGGCGUGGUCCCAGCCUCCUCGCUGGCGCCGGCUGGGCAACAUUCCGAGGGGACCGUCCCCUCGGUAAUGGCGAAUGGGACCCU ?
Result: High

Ask: Lookup GGCCGGCAUGGUCCCAGACUCCUCGCUGGCGCCAGCUGGGCAACAUUCCGAGGGGACCGUCCCCUCGGUAAUGGCGAAUGGGACCCA
Result: Low

Ask: And then GGCCGUCAUGGUCCCAGCCUCCUCGCUGGCGCCGGCUGGGCAACAUUCCGAGGGAACCGUCCCCUCGGUAAUGGCGAAUGGGACCCA , what is it?
Result: Medium

Ask: For GGGCGGCAUGGUCCCAGCCUCCUCGCUGGCGCCGGCUGGGCAACAUUCCGAGGGGACCGUCCCCUCGGUAAUGGCGAUUGGGACCCA then?
Result: Medium

Ask: Entry GGCCGGCAUGGUCUCAGCCUCCUCGCUGGCGCCGGAUGGGCAACAUUCCGAGGGGACCGUCCCCUCGGUAAUGGCGAAUGGGACCCA please
Result: Medium

Ask: Query GGCCGGAAUGGUCCCAGCCCCCUCGCUGGCGCCGGCUGGGCAACAUUCCGAGGGGACCGUCCCCUCGGUAAUGGCGAAUGGGACCCA next
Result: Low

Ask: // query: GGCCGGCAUGGUCCCAGCCUCCUCGCUGGCGCCGGCUGGGCAAAAUUCCGAGGGGAACGUCCCCUCGGUAAUGGCGAAUGGGACCCA
Result: High

Ask: Would you kindly repeat that for GGCCGGCAUGGUCCCAGCCUCCUCGCUGGCGCCGGCUGGGCAAAAUUCCGAGGGGACCGUCUCCUCGGUAAUGGCGAAUGGGACCCA ?
Result: High

Ask: Param item: GGCCGGCAUGGUCCCAGCCUCCUCGCUGGCGCCGGCUAGGCAACAUUCCGAGGGGACCGUCCCCUCGGUAAUGGCGAUUGGGACCCA
Result: Low

Ask: Same question for GGCCGGCAUCGUCCCAGCCUCCUCGCUGGCGCCGGCUGGGCAACAUUCCUAGGGGACCGUCCCCUCGGUAAUGGCGAAUGGGACCCA please.
Result: High

Ask: Same thing, different variant: GGCCGGCAUGGUCCCAGCCUCCUCGCUGGCGCCGGCUGGGCAACAUUCCGAGGGCACCGUCCCCUCGGUAAUGGCGAAUGGGAUCCA
Result: High

Ask: GUCCGGCAUGGUCCCAGCCUCCCCGCUGGCGCCGGCUGGGCAACAUUCCGAGGGGACCGUCCCCUCGGUAAUGGCGAAUGGGACCCA ?
Result: Medium
